Record form. Attribute: TGI. Fill in for each entry.
# System: MALME-3M melanoma
# assaySummary: NCI tumour cell line growth inhibition, 48 h

These recorded examples may help you get a feel for the data.
CCC(=O)Nc1ccc(N2C(=O)/C(=C/c3ccc(O)c(OC)c3)N=C2c2ccccc2)cc1: > 100 µM
C=C1CN=C(Nc2ccc(F)cc2F)S1: > 100 µM

response.value for `O=S(=O)([O-])c1cccc2cccc(N=Cc3ccccc3[O-])c12.O=S(=O)([O-])c1cccc2cccc(N=Cc3ccccc3[O-])c12.[O]=[U]=[O]` (field: TGI) = > 100 µM

----------
Exercise: state measured TGI for each of the molecules provided.
# System: HL-60(TB) leukemia
# assaySummary: NCI tumour cell line growth inhibition, 48 h
Numbers only, in µM.

Example entries begin here.
COC(=O)c1c(C)cccc1C1CN=NC12Cc1cccc(C)c1C2=O (stereo not given): 33.6
Cc1ccc(C(CN(C)C)C(=O)c2ccccc2)cc1 (stereo not given): 5.24
Cc1cc(=O)[nH]c(NN2C(Cl)C(=O)C2c2ccco2)n1 (stereo not given): 39.3
CCCCN(CCCC)C1=Nc2ccccc2-n2c(nnc2C(=O)OCC)C1: 40.9
CCN1C2=NC(=O)N(C)C(=O)C2(Cl)C(C(SC)S(=O)(=O)c2ccc(C)cc2)c2ccccc21 (stereo not given): 19.7

Value sought for every listed molecule: TGI.
1. O=[N+]([O-])c1cccc([N+](=O)[O-])c1Cl
2. O=C1/C(=C(/Br)I)c2ccccc2-c2ccccc21

[reply]
1. 24.2
2. 0.516

Form field TGI, entry C=C(C)C(=O)O[C@H]1CC2(CO)O[C@@H]2CC/C(COC(C)=O)=C/C2OC(=O)C(=C)[C@@H]21 (stereo not given in full) : 29.6

----------
For each of the compounds below, state its TGI.
# System: EKVX NSCLC
# assaySummary: NCI tumour cell line growth inhibition, 48 h
*1 amine or outer side, *2 acyl side, *3 side chain or, on linkers, in order; H or OH if unused. Where a SMILES comes first, the peptide text is derived from it. Bridges are numbered along the chain shown (N, C = ends). Roman numbers before positions name the chains, in order. [ ]: non-standard residue; d: D form. Actinocin(9to1) = Cc1c2oc3c(C)ccc(C(=O)[*:1])c3nc-2c(C(=O)[*:2])c(N)c1=O; NMeV = CN[CH](C(=O)O)C(C)C; Sar = CNCC(=O)O

The cases that follow already have their TGI on record.
Cc1c2oc3c(C)ccc(C(=O)NC4C(=O)NC(Cc5ccc(O)cc5)C(=O)N5CCCC5C(=O)N(C)CC(=O)N(C)C(C(C)C)C(=O)OC4C)c3nc-2c(C(=O)NC2C(=O)NC(Cc3ccc(O)cc3)C(=O)N3CCCC3C(=O)N(C)CC(=O)N(C)C(C(C)C)C(=O)OC2C)c(N)c1=O (configuration not stated) (I: TYP[Sar][NMeV] / II: TYP[Sar][NMeV]; ester I:1-I:C, II:1-II:C; linker I:N-II:N via Actinocin(9to1); configuration not given here): > 100 µM
CCCCCCCCCCCCCCCCCC(=O)OCC(CN(C)CCN(C)C)OC(=O)CCCCCCCCCCCCCCCCC (configuration not stated): > 100 µM
O=C1c2cccc3cc([N+](=O)[O-])cc(c23)C(=O)N1CCNCCNCCNCCN1C(=O)c2cccc3cc([N+](=O)[O-])cc(c23)C1=O: 0.88 µM
CC(C)NCCNC(=O)c1ccccc1Nc1c(Cl)cccc1Cl: 28.1 µM
CCN(CC)c1ccc(/C=C\c2cc(C)c3cc(C)ccc3n2)cc1: > 100 µM
Oc1ccc(Cc2ccc(O)c3ncccc23)c2cccnc12: > 100 µM

Consider now this further compound.
TGI reported for this compound `Cc1cn([C@@H]2C[C@](C)(CO)N(C)O2)c(=O)[nH]c1=O` : > 100 µM

# credit: PubChem BioAssay (NCI)
